For each record, write down the corresponding pIC50.
# experimental.system: UniProt:Q01726
# procedure.summary: Partial agonist activity at C-terminal HA-tagged human MC1-R stably expressed in HEK293 cells co-expressing GScAMP22P cAMP reporter assessed as inhibition of alpha-MSH induced cAMP production by cell based luminescence assay
# Format: functional
# Sequence (Q01726 whole entry): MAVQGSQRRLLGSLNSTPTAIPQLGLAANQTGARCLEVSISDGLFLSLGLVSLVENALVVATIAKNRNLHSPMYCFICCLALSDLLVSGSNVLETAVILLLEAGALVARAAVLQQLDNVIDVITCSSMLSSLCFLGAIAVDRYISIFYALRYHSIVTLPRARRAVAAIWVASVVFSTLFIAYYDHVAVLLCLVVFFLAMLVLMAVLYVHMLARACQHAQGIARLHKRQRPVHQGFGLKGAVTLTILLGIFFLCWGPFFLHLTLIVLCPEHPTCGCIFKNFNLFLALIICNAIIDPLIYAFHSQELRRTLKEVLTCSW
In textbook form, pIC50 equals minus log to base ten of the concentration in mol/L.

q: Bench note: what pIC50 did "CCCC[C@H](NC(C)=O)C(=O)N[C@H]1CC(=O)NCCCC[C@@H](C(N)=O)NC(=O)[C@H](CCCNC(=N)N)NC(=O)[C@H](Cc2c[nH]c3ccccc23)NC(=O)[C@H](CCCNC(=N)N)NC(=O)[C@@H](Cc2ccc3ccccc3c2)NC(=O)[C@@H]2CCCN2C1=O" show?
a: 6.52

q: Bench note: what pIC50 did "CCCC[C@H](NC(C)=O)C(=O)N[C@H]1CC(=O)NCCCC[C@@H](C(N)=O)NC(=O)[C@H](CCCCNC(=N)NCCC)NC(=O)[C@H](Cc2c[nH]c3ccccc23)NC(=O)[C@H](CCCNC(=N)N)NC(=O)[C@@H](Cc2ccc3ccccc3c2)NC(=O)[C@@H]2CCCN2C1=O" show?
a: 7.12

q: Bench note: what pIC50 did "CCCC[C@H](NC(C)=O)C(=O)N[C@H]1CC(=O)NCCCC[C@@H](C(N)=O)NC(=O)[C@H](CCCCNC(=N)N)NC(=O)[C@H](Cc2c[nH]c3ccccc23)NC(=O)[C@H](CCCNC(=N)N)NC(=O)[C@@H](Cc2ccc3ccccc3c2)NC(=O)[C@@H]2CCCN2C1=O" show?
a: 6.09

q: Bench note: what pIC50 did "CC(=O)N[C@H](CCCNC(=N)N)C(=O)N[C@H]1CC(=O)NCCCC[C@@H](C(N)=O)NC(=O)[C@H](CCCNC(=N)N)NC(=O)[C@H](Cc2c[nH]c3ccccc23)NC(=O)[C@H](CCCNC(=N)N)NC(=O)[C@@H](Cc2ccc3ccccc3c2)NC(=O)[C@@H]2CCCN2C1=O" show?
a: 5.91

###

# experimental.system: Melanocyte-stimulating hormone receptor (Homo sapiens)
# procedure.summary: Partial agonist activity at C-terminal HA-tagged human MC1-R stably expressed in HEK293 cells co-expressing GScAMP22P cAMP reporter assessed as inhibition of alpha-MSH induced cAMP production by cell based luminescence assay
# Format: functional
quantity.measured: pIC50
In textbook form, pIC50 equals minus log to base ten of the concentration in mol/L.

q: Bench note: what pIC50 did "CCCC[C@H](NC(C)=O)C(=O)N[C@H]1CC(=O)NCCCC[C@@H](C(N)=O)NC(=O)CNC(=O)[C@H](Cc2c[nH]c3ccccc23)NC(=O)[C@H](CCCNC(=N)N)NC(=O)[C@@H](Cc2ccc3ccccc3c2)NC(=O)[C@@H]2C[C@H](NC(=O)[C@@H](N)CCC(=O)O)CN2C1=O" show?
a: 9.70

q: Bench note: what pIC50 did "CC(=O)N[C@H](CCCN)C(=O)N[C@H]1CC(=O)NCCCC[C@@H](C(N)=O)NC(=O)[C@H](CCCNC(=N)N)NC(=O)[C@H](Cc2c[nH]c3ccccc23)NC(=O)[C@H](CCCNC(=N)N)NC(=O)[C@@H](Cc2ccc3ccccc3c2)NC(=O)[C@@H]2CCCN2C1=O" show?
a: 5.51

###

# experimental.system: Melanocyte-stimulating hormone receptor (Homo sapiens, UniProt Q01726)
# procedure.summary: Partial agonist activity at C-terminal HA-tagged human MC1-R stably expressed in HEK293 cells co-expressing GScAMP22P cAMP reporter assessed as inhibition of alpha-MSH induced cAMP production by cell based luminescence assay relative to control
# Format: functional
# Set-up: concentration or dose not given beside the values
# assay.setup: filed as partial agonist, concentration not given here
# Sequence (Q01726 whole entry, looked up): as the sequence (Q01726 whole entry) above
quantity.measured: inhibition (%)
Numeric only. Scale: %

q: Bench note: what inhibition did "CCCC[C@H](NC(C)=O)C(=O)N[C@H]1CC(=O)NCCCC[C@@H](C(N)=O)NC(=O)CNC(=O)[C@H](Cc2c[nH]c3ccccc23)NC(=O)[C@H](CCCNC(=N)N)NC(=O)[C@@H](Cc2ccc3ccccc3c2)NC(=O)[C@@H]2C[C@H](n3cc(C(C)(C)N)nn3)CN2C1=O" show?
a: 83.8

q: Bench note: what inhibition did "CC(=O)N[C@H](CCCN)C(=O)N[C@H]1CC(=O)NCCCC[C@@H](C(N)=O)NC(=O)[C@H](CCCNC(=N)N)NC(=O)[C@H](Cc2c[nH]c3ccccc23)NC(=O)[C@H](CCCNC(=N)N)NC(=O)[C@@H](Cc2ccc3ccccc3c2)NC(=O)[C@@H]2CCCN2C1=O" show?
a: 73.7

q: Bench note: what inhibition did "CCCC[C@H](NC(C)=O)C(=O)N[C@H]1CC(=O)NCCCC[C@@H](C(N)=O)NC(=O)CNC(=O)[C@H](Cc2c[nH]c3ccccc23)NC(=O)[C@H](CCCNC(=N)N)NC(=O)[C@@H](Cc2ccc3ccccc3c2)NC(=O)[C@@H]2C[C@H](n3cc(C4CCCCC4)nn3)CN2C1=O" show?
a: 89.5

q: Bench note: what inhibition did "CCCC[C@H](NC(C)=O)C(=O)N[C@H]1CC(=O)NCCCC[C@@H](C(N)=O)NC(=O)[C@H](Cc2ccc(NC(=N)N)cc2)NC(=O)[C@H](Cc2c[nH]c3ccccc23)NC(=O)[C@H](CCCNC(=N)N)NC(=O)[C@@H](Cc2ccc3ccccc3c2)NC(=O)[C@@H]2CCCN2C1=O" show?
a: 88.6

q: Bench note: what inhibition did "CCCC[C@H](NC(C)=O)C(=O)N[C@H]1CC(=O)NCCCC[C@@H](C(N)=O)NC(=O)[C@H](CCCN)NC(=O)[C@H](Cc2c[nH]c3ccccc23)NC(=O)[C@H](CCCNC(=N)N)NC(=O)[C@@H](Cc2ccc3ccccc3c2)NC(=O)[C@@H]2CCCN2C1=O" show?
a: 83.8

q: Bench note: what inhibition did "CCCC[C@H](NC(C)=O)C(=O)N[C@H]1CC(=O)NCCCC[C@@H](C(N)=O)NC(=O)[C@H](CCCCNC(=N)NCCC(=O)O)NC(=O)[C@H](Cc2c[nH]c3ccccc23)NC(=O)[C@H](CCCNC(=N)N)NC(=O)[C@@H](Cc2ccc3ccccc3c2)NC(=O)[C@@H]2CCCN2C1=O" show?
a: 83.2

q: Bench note: what inhibition did CCCCC(NC(C)=O)C(=O)N[C@H]1CC(=O)NCCCC[C@@H](C(N)=O)NC(=O)CNC(=O)[C@H](Cc2c[nH]c3ccccc23)NC(=O)[C@H](CCCNC(=N)N)NC(=O)[C@@H](Cc2ccc3ccccc3c2)NC(=O)[C@@H]2C[C@@H](n3cc(-c4ccccn4)nn3)CN2C1=O (some centres not stated) show?
a: 88.4

###

# Tested on: HEK293
# procedure.summary: Selectivity ratio of IC50 for C-terminal HA-tagged human MC4-R stably expressed in HEK293 cells co-expressing GScAMP22P cAMP reporter assessed as inhibition of alpha-MSH induced cAMP production to IC50 for C-terminal HA-tagged human MC1-R stably expressed in HEK293 cells co-expressing GScAMP22P cAMP reporter assessed as inhibition of alpha-MSH induced cAMP production
# Type: cell-based
quantity.measured: Ratio IC50
Reply: number alone, nothing else.

q: Bench note: what Ratio IC50 did "CCCC[C@H](NC(C)=O)C(=O)N[C@H]1CC(=O)NCCCC[C@@H](C(N)=O)NC(=O)CNC(=O)[C@H](Cc2c[nH]c3ccccc23)NC(=O)[C@H](CCCNC(=N)N)NC(=O)[C@@H](Cc2ccc3ccccc3c2)NC(=O)[C@@H]2C[C@H](NC(=O)[C@@H](N)CCC(=O)O)CN2C1=O" show?
a: 0.1

q: Bench note: what Ratio IC50 did CCCCC(NC(C)=O)C(=O)N[C@H]1CC(=O)NCCCC[C@@H](C(N)=O)NC(=O)CNC(=O)[C@H](Cc2c[nH]c3ccccc23)NC(=O)[C@H](CCCNC(=N)N)NC(=O)[C@@H](Cc2ccc3ccccc3c2)NC(=O)[C@@H]2C[C@@H](n3cc(-c4ccccn4)nn3)CN2C1=O (some centres not stated) show?
a: 53

###

# Tested on: HEK293
# procedure.summary: Selectivity ratio of IC50 for C-terminal HA-tagged human MC4-R stably expressed in HEK293 cells co-expressing GScAMP22P cAMP reporter assessed as inhibition of alpha-MSH induced cAMP production to IC50 for C-terminal HA-tagged human MC1-R stably expressed in HEK293 cells co-expressing GScAMP22P cAMP reporter assessed as inhibition of alpha-MSH induced cAMP production
# Format: cell-based
For each record, write down the corresponding Ratio IC50.
Reply: number alone, nothing else.

q: Bench note: what Ratio IC50 did "CCCC[C@H](NC(C)=O)C(=O)N[C@H]1CC(=O)NCCCC[C@@H](C(N)=O)NC(=O)CNC(=O)[C@H](Cc2c[nH]c3ccccc23)NC(=O)[C@H](CCCNC(=N)N)NC(=O)[C@@H](Cc2ccc3ccccc3c2)NC(=O)[C@@H]2C[C@H](n3cc(C(C)(C)N)nn3)CN2C1=O" show?
a: 0.5

q: Bench note: what Ratio IC50 did "CCCC[C@H](NC(C)=O)C(=O)N[C@H]1CC(=O)NCCCC[C@@H](C(N)=O)NC(=O)CNC(=O)[C@H](Cc2c[nH]c3ccccc23)NC(=O)[C@H](CCCNC(=N)N)NC(=O)[C@@H](Cc2ccc3ccccc3c2)NC(=O)[C@@H]2C[C@H](n3cc(-c4ccccc4)nn3)CN2C1=O" show?
a: 9.9

q: Bench note: what Ratio IC50 did "CCCCCCc1cn([C@H]2C[C@H]3C(=O)N[C@H](Cc4ccc5ccccc5c4)C(=O)N[C@@H](CCCNC(=N)N)C(=O)N[C@@H](Cc4c[nH]c5ccccc45)C(=O)NCC(=O)N[C@H](C(N)=O)CCCCNC(=O)C[C@H](NC(=O)[C@H](CCCC)NC(C)=O)C(=O)N3C2)nn1" show?
a: 7
